Assay: chemical genetic growth profiling, strain panel (AID 1159580);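 also: tested at 20 µM; growth read once vehicle control cultures reached saturation at 30 °C; 1 = growth at the plate median or of vehicle wells; lower values mean less growth of the strain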
Settings: S. cerevisiae deletion strains, growth OD, locus YNL183C, strain NPR1
The whole screen tested about 5,500 compounds, of which about 2,000 (36%) were called active. Inconclusive results (about 18%) are left out. Rule as the data show it: active = normalized growth mostly below about 0.91 (no sharp cut-off); inconclusive = no clear call, values can overlap the other calls; inactive = mostly above about 0.92. Some of the results follow.
Hi! Could you answer with just one of these? yes (1) (active), no (0) (inactive)

Test call for this compound, please: Oc1c(I)cc(Cl)c2cccnc12 yes (1)

Test call for this compound, please: C=C(NC(=O)C(=C)NC(=O)c1csc(C2=NC3c4csc(n4)C4NC(=O)c5csc(n5)C(C(C)(O)C(C)O)NC(=O)C5CSC(=N5)C(=CC)NC(=O)C(C(C)O)NC(=O)c5csc(n5)C3(CC2)NC(=O)C(C)NC(=O)C(=C)NC(=O)C(C)NC(=O)C(C(C)CC)NC2C=Cc3c(C(C)O)cc(nc3C2O)C(=O)OC4C)n1)C(N)=O (stereo not given) no (0)

Continuing:
Test call for this compound, please: CC(=O)Nc1cc([As](=O)(O)O)ccc1O no (0)

Test call for this compound, please: C=C(CC)C(=O)c1ccc(OCC(=O)O)c(Cl)c1Cl yes (1)

Test call for this compound, please: Nc1ncnc2c1ncn2C1C[C@H](O)[C@@H](CO)O1 (stereo not given in full) no (0)

Test call for this compound, please: Oc1c(Cl)cc(Cl)c2cccnc12 yes (1)

Test call for this compound, please: C=CC(C1=CC(=O)C(OC)=CC1=O)c1ccc(OC)cc1 (stereo not given) no (0)

Test call for this compound, please: Oc1c(Br)cc(Br)c2cccnc12 yes (1)

Test call for this compound, please: C=CC(C1=CC(=O)C(OC)=CC1=O)c1ccccc1 (stereo not given) no (0)

Test call for this compound, please: O=C(O)/C=C/c1ccccc1 yes (1)
